Each recorded value in this set is attributed to ChEMBL document CHEMBL1201862.

- Test system: HCC 2998
- PROCEDURE DETAILS: NCI tumour cell line growth inhibition, 48 h
Calls of active or inactive are those of the source. Rule as the data show it: active = GI50 up to about 1.1 µM and inactive = higher.
OBSERVATION TYPE: GI50

Solved entries (count: 4):
CC(=O)NNC1=NN(C(C)=O)C2(S1)C(=O)Nc1ccc(C)cc12 (stereo unspecified) : 47.1 µM (inactive)
CCOC(=O)c1c(SC(=O)/C=C/c2ccccc2)n(-c2ccccc2)c(=S)n(-c2ccccc2)c1=O : > 100 µM (inactive)
CCCN1C(=O)/C(=C\c2ccc(OC)c(OC)c2)S/C1=N\c1ccccc1 : > 100 µM (inactive)
CNS(=O)(=O)NNS(=O)(=O)c1ccc(OC)cc1 : > 100 µM (inactive)

Please state GI50 for every compound in the list that follows.
1. N#CC(C(=O)/C(=N\Nc1nc(S)nn1N)C(C#N)c1ccc(Cl)cc1)c1ccc(Cl)cc1 (stereo unspecified)
2. C=C(Cl)C(Cl)(CBr)CCCC(C)C (stereo unspecified)

1: > 100 µM (inactive); 2: 19.6 µM (inactive)

###

- Tested on: XF498
- PROCEDURE DETAILS: NCI tumour cell line growth inhibition, 48 h
Active and inactive are the calls of the source. Rule as the data show it: active = GI50 up to about 1.1 µM and inactive = higher.
Write down one outcome, taken from True (active), False (inactive)

The examples below pair each entry with its known result.
O=C(/C=C/c1ccccc1)CC1OC(=O)c2ccccc21 (stereo not given) : False
C/C(=N/NC(=O)C[N+](C)(C)C)C(CN(C)C)C(=O)Nc1ccccc1 (stereo not given) : False

Kindly review the next compound as well.
Can you look up the reported call for NC(=O)NC1C(C(N)=O)N(Cc2ccccc2)C(=O)N1Cc1ccccc1 (stereo not given) for me? False

###

- Test system: SN12C
- PROCEDURE DETAILS: NCI tumour cell line growth inhibition, 48 h
Calls of active or inactive are those of the source. Rule as the data show it: active = GI50 up to about 1.1 µM and inactive = higher.
OBSERVATION TYPE: GI50

Solved entries (count: 3):
CC1(C)CC(=O)c2c(N)n[nH]c2C1 : > 100 µM (inactive)
CCOC(=O)c1cn(CC)c(=O)n2c1nc1ccccc12 : > 100 µM (inactive)
CCC(C)C(NC(=O)c1cccc2c(=O)c3ccccc3[nH]c12)C(=O)O (centres undefined) : > 100 µM (inactive)

Please state GI50 for every compound in the list that follows.
1. CC(C)=NOC(=O)CNC(=O)C(Cc1ccccc1)NC(=O)C(C)NC(=O)OC(C)(C)C (centres undefined)
2. Cc1cccc(C(=O)O)c1C(=O)c1cccc2ccccc12
3. Cc1cc(N(CCC#N)CCC#N)ccc1/C=C1N=C(/C=C\c2ccccc2)N(NC(=O)CC(=O)Nc2ccccc2Cl)C\1=O
4. O=C1c2c(F)c(F)c(F)c(F)c2SC2=NCCN12

["> 100 µM (inactive)", "> 100 µM (inactive)", "> 100 µM (inactive)", "9.25 µM (inactive)"]

Please state GI50 for every compound in the list that follows.
1. O=C(O)CCc1nn2c(nc1=O)sc1ccc3ccccc3c12
2. N#Cc1c(=O)c2ccccc2n2ccccc12

["> 100 µM (inactive)", "> 100 µM (inactive)"]

###

- Test system: DMS-273
- PROCEDURE DETAILS: NCI tumour cell line growth inhibition, 48 h
The source made the active and inactive calls. Rule as the data show it: active = GI50 up to about 1.1 µM and inactive = higher.
Write down one outcome, taken from 1 = active, 0 = inactive

The examples below pair each entry with its known result.
C=CCC12CCC(=O)C=C1CCC1(C2)OCCO1 (stereo unspecified) : 0
CCOC(=O)C1=C(OC(OCC)C(CC)[Se]c2ccccc2)CCC1 (stereo unspecified) : 0
CSc1ccc(Cc2cc(C(C)(C)C)cc(C(C)(C)C)c2O)cc1 : 0
COC1OC(OC)C2C(c3c(C)cc(C)cc3C)=NOC12 (stereo unspecified) : 0

Can you look up the reported call for CCOP(=O)(OCC)OC(C#N)c1ccc(-c2ccccc2)cc1 (stereo unspecified) for me? 0

Can you look up the reported call for O=C(/C=C/c1ccccc1)CC1OC(=O)c2ccccc21 (stereo unspecified) for me? 0

Can you look up the reported call for `CNS(=O)(=O)NNS(=O)(=O)c1ccc(OC)cc1` for me? 0

Can you look up the reported call for CCC(C)(C)C(=O)O[C@H]1C[C@@H](C)C=C2C=C[C@H](C)[C@H](CC[C@@H]3C[C@@H](O)CC(=O)O3)[C@H]21 [SIMVASTATIN] for me? 0

Can you look up the reported call for `CC(=O)NNc1nc(C)c(C(=O)NNC(=O)C(=O)Nc2ccc([N+](=O)[O-])cc2[N+](=O)[O-])s1` for me? 0

Can you look up the reported call for `Cc1cc(C(=O)NCCN(C)C)c2nc3ccccc3nc2c1` for me? 0

Can you look up the reported call for COC(=O)C12CCC(CC1=O)C2(C)C (stereo unspecified) for me? 0

Can you look up the reported call for `N#CC(C#N)c1ccc(C(=O)N2CCC[C@H]2CO)cc1` for me? 0

Can you look up the reported call for `CC1=C(C(=O)NCc2ccccc2)C(c2ccc([N+](=O)[O-])cc2)C(C(=O)NCc2ccccc2)=C(C)N1` for me? 0

Can you look up the reported call for `c1ccc(C(c2ccccc2)[P+](c2ccccc2)(c2ccccc2)c2ccccc2)cc1` for me? 1

Can you look up the reported call for `O=C(N/N=C/c1cc(Br)ccc1O)N/N=C/c1cc(Br)ccc1O` for me? 1

Can you look up the reported call for COC(=O)/C(=N\Nc1nnc(C)n1N)C(C#N)c1ccc(Cl)cc1 (stereo unspecified) for me? 0

Can you look up the reported call for CC(C)(C)C(=O)O[C@@H]1COC2C(O)COC21 (stereo partly specified) for me? 0

Can you look up the reported call for `Cc1cc(C)nc(NS(=O)(=O)c2ccc(Nc3c4ccccc4nc4c(C(=O)Nc5ccc(S(=O)(=O)N=C(N)N)cc5)cccc34)cc2)n1` for me? 0

Can you look up the reported call for O=C1c2ccccc2OP(=O)(OCC(F)(F)F)OC1(C(F)(F)F)C(F)(F)F (stereo unspecified) for me? 0

Can you look up the reported call for CCCC1N2CCCCC2[C@@H]2c3[nH]c4ccccc4c3CCN12 (stereo partly specified) for me? 0

Can you look up the reported call for N#CC(NNC(=O)Cc1ccccc1)c1ccc([N+](=O)[O-])cc1 (stereo unspecified) for me? 0
